- assayed target: T1, monkey 4-1BB on CHOK1 cells (monkey)
- T1 construct: whole, on cells; also called CHOK1-c4-1BB
- test: FACS, CHOK1-c4-1BB cells; Ab 0.00013 ug/ml
We begin with a simple list: items and their reported average fluorescence intensity.
Just the number please, in MFI, no unit attached.

172E3E3 (antibody, V domains shown) VH: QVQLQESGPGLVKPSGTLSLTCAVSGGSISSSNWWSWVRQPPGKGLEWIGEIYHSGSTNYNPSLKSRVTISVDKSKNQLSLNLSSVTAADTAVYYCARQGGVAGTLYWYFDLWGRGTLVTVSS VL: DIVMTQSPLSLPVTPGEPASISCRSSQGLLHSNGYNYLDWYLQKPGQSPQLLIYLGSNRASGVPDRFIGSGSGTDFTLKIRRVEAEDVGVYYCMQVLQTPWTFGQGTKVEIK : 17.6
57B3D10 (antibody, V domains shown, also called 4-1BB fully human antibody 57B3D10) VH: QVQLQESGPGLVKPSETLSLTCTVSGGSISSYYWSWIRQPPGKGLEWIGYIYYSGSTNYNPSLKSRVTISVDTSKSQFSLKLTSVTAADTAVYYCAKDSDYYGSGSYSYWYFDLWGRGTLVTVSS VL: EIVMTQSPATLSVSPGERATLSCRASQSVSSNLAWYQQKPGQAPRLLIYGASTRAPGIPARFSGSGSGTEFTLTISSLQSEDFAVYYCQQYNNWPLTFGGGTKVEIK : 3.3
170D7F2 (antibody, V domains shown) VH: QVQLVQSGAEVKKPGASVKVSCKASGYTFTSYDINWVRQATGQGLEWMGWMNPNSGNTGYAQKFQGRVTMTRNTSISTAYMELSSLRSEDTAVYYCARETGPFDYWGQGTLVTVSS VL: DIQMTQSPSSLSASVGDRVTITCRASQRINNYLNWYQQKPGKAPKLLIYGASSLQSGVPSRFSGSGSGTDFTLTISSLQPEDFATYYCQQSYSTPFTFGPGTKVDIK : 2.6
100F3C4 (antibody, V domains shown) VH: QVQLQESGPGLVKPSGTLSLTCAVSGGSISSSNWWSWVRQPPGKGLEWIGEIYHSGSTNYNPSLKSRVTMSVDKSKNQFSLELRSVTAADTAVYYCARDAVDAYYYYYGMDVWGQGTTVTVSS VL: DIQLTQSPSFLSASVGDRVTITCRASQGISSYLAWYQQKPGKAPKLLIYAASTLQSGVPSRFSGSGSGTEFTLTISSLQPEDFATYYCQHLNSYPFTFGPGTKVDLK : 2.2
15G10D4 (antibody, V domains shown) VH: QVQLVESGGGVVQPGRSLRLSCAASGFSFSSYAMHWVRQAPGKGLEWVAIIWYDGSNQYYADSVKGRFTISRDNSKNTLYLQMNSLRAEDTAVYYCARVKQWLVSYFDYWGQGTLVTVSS VL: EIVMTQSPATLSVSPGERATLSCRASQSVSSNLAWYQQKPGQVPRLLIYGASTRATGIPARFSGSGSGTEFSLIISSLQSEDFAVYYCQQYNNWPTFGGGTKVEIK : 3.3
52F4G2 (antibody, V domains shown) VH: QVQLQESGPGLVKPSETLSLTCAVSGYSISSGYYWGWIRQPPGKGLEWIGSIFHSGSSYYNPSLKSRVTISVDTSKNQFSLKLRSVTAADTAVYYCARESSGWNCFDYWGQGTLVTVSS VL: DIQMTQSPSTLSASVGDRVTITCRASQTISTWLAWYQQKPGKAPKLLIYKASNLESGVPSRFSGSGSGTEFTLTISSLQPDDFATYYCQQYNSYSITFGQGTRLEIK : 3.2

**Query** So what does the record say about average fluorescence intensity for 11H10C9 (antibody, V domains shown) VH: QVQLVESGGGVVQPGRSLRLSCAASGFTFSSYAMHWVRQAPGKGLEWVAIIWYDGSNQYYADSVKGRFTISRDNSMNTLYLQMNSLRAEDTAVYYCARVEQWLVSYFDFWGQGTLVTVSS VL: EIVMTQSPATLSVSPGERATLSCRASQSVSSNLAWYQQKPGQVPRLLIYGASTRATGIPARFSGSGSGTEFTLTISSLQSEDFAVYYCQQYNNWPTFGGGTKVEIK ?
**Result** 3

**Query** And for 113F6C6 (antibody, V domains shown, also called 4-1BB fully human antibody 113F6C6; 113F6F6) VH: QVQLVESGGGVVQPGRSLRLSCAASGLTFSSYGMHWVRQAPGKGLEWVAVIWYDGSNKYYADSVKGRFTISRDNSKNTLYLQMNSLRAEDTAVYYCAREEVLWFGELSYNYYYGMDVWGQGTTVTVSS VL: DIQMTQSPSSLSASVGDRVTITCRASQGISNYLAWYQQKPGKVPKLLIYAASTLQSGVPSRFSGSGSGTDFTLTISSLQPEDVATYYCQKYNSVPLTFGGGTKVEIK ?
**Result** 2.9

**Query** Next binder: 118F3A2 (antibody, V domains shown) VH: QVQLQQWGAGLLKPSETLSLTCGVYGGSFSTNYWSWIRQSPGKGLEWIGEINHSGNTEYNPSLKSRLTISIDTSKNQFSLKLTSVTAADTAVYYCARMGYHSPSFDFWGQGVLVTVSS VL: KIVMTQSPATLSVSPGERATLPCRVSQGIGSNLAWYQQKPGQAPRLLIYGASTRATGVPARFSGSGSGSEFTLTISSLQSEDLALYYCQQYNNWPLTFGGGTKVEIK
**Result** 2.9

**Query** Please give the result for 119B6G5 (antibody, V domains shown) VH: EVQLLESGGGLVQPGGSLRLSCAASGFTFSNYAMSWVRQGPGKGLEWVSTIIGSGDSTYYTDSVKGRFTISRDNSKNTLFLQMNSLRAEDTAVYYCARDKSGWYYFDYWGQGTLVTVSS VL: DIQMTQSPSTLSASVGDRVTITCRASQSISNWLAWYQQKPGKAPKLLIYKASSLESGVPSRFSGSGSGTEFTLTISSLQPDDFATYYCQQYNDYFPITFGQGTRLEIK too.
**Result** 3.2
